- protocol notes: Plasma pharmacokinetics of oral NMP by LCMSMS
- Assay type: in vivo, human
- assay setup: human, plasma, po, 100 mg, oral 100 mg; average of N = 5 profiles; plasma; read-out: Tmax, Average

>  <mol smiles>
CN1CCCC1=O

>  <Tmax, min>
30

$$$$

* * *

- protocol notes: Plasma pharmacokinetics of oral NMP by LCMSMS
- Type: in vivo, human
- assay setup: human, plasma, po, 25 mg, oral 25 mg; patient RMH-01 occasion 6; plasma; read-out: Cmax
parameter measured: Cmax (ng/mL)

>  <mol smiles>
CN1CCCC1=O

>  <quantitative readout>
930

$$$$

* * *

- protocol notes: Plasma pharmacokinetics of oral NMP by LCMSMS
- Format: in vivo, human
- assay setup: human, plasma, po, all dose levels 25-800 mg oral; N = 29 profiles; plasma; read-out: Tmax, Overall Average
parameter measured: Tmax

>  <mol smiles>
CN1CCCC1=O

>  <result>
~30 min

$$$$

* * *

- protocol notes: Plasma pharmacokinetics of oral NMP by LCMSMS
- Type: in vivo, human
- assay setup: human, plasma, po, 200 mg, oral 200 mg; average of N = 8 profiles; plasma; read-out: Half-life, Average (converted)
parameter measured: half-life (h)

>  <mol smiles>
CN1CCCC1=O

>  <parameter measured>
half-life

>  <quantitative readout>
1.47

$$$$

* * *

- protocol notes: Plasma pharmacokinetics of oral NMP by LCMSMS
- Assay type: in vivo, human
- assay setup: human, plasma, po, all dose levels 25-800 mg oral; N = 28 profiles; plasma; read-out: Half-life, Overall Average (converted)
parameter measured: half-life (h)

>  <compound>
CN1CCCC1=O [NMP, N-methyl-2-pyrrolidone]

>  <quantitative readout>
1.55

$$$$

* * *

- protocol notes: Plasma pharmacokinetics of oral NMP by LCMSMS
- Format: in vivo, human
- assay setup: human, plasma, po, 600 mg, oral 600 mg; patient MON-11 occasion 4; plasma; read-out: Tmax
parameter measured: Tmax (min)

>  <mol smiles>
CN1CCCC1=O

>  <quantitative readout>
30

$$$$

* * *

- protocol notes: Plasma pharmacokinetics of oral NMP by LCMSMS
- Format: in vivo, human
- assay setup: human, plasma, po, 25 mg, oral 25 mg; patient RMH-01 occasion 6; plasma; read-out: AUC
parameter measured: AUC (ng·h/mL)

>  <mol smiles>
CN1CCCC1=O

>  <parameter measured>
AUC

>  <units symbol>
ng·h/mL

>  <quantitative readout>
1500

$$$$

* * *

- protocol notes: Plasma pharmacokinetics of oral NMP by LCMSMS
- Assay type: in vivo, human
- assay setup: human, plasma, po, 500 mg, oral 500 mg; patient MON-11 occasion 3; plasma; read-out: Tmax

>  <mol smiles>
CN1CCCC1=O

>  <Tmax / min>
30

$$$$

* * *

- protocol notes: Plasma pharmacokinetics of oral NMP by LCMSMS
- Assay type: in vivo, human
- assay setup: human, plasma, po, 400 mg, oral 400 mg; individual profiles (MON-11 occasion 2, MON-12); plasma; read-out: Cmax
parameter measured: Cmax (ng/mL)

>  <mol smiles>
CN1CCCC1=O

>  <parameter measured>
Cmax

>  <units symbol>
ng/mL

>  <quantitative readout>
8990

$$$$

* * *

- protocol notes: Plasma pharmacokinetics of oral NMP by LCMSMS
- Type: in vivo, human
- assay setup: human, plasma, po, 400 mg, oral 400 mg; average of N = 2 profiles; plasma; read-out: Cmax, Average

>  <compound>
CN1CCCC1=O [NMP, N-methyl-2-pyrrolidone]

>  <Cmax (ng/mL)>
8310

$$$$

* * *

- protocol notes: Plasma pharmacokinetics of oral NMP by LCMSMS
- Type: in vivo, human
- assay setup: human, plasma, po, 200 mg, oral 200 mg; average of N = 9 profiles; plasma; read-out: Cmax, Average

>  <molecule>
CN1CCCC1=O [NMP, N-methyl-2-pyrrolidone]

>  <units symbol>
ng/mL

>  <Cmax>
4050

$$$$

* * *

- protocol notes: Plasma pharmacokinetics of oral NMP by LCMSMS
- Type: in vivo, human
- assay setup: human, plasma, po, 50 mg, oral 50 mg; average of N = 5 profiles; plasma; read-out: Tmax, Average

>  <compound>
CN1CCCC1=O [NMP, N-methyl-2-pyrrolidone]

>  <units symbol>
min

>  <Tmax>
30

$$$$

* * *

- protocol notes: Plasma pharmacokinetics of oral NMP by LCMSMS
- Type: in vivo, human
- assay setup: human, plasma, po, 800 mg, oral 800 mg; patient MON-11 occasion 6; plasma; read-out: Half-life (converted)

>  <mol smiles>
CN1CCCC1=O

>  <half-life / h>
1.75

$$$$

* * *

- protocol notes: Plasma pharmacokinetics of oral NMP by LCMSMS
- Assay type: in vivo, human
- assay setup: human, plasma, po, 50 mg, oral 50 mg; average of N = 5 profiles; plasma; read-out: Cmax, Average
- Procedure: Blood samples were taken from patients before NMP and at one, two, four, eight and 24 h post dose. Plasma samples (20 μl) were prepared by adding five volumes of methanol containing deuterated internal standard. The samples were vortexed then centrifuged, and the supernatant was transferred to a vial and injected onto the LCMSMS. The LCMSMS system consisted of a Shimadzu UHPLC with a SCIEX 6500QTrap, a KinetexC18 (3 × 50 mm, 2.6 μm) column and using a gradient of 0.1% formic acid and acetonitrile. […]

>  <mol smiles>
CN1CCCC1=O

>  <Cmax>
1260 ng/mL

$$$$

* * *

- protocol notes: Plasma pharmacokinetics of oral NMP by LCMSMS
- Format: in vivo, human
- assay setup: human, plasma, po, 500 mg, oral 500 mg; patient MON-11 occasion 3; plasma; read-out: Half-life (converted)

>  <mol smiles>
CN1CCCC1=O

>  <half-life>
1.98 h

$$$$

* * *

- protocol notes: Plasma pharmacokinetics of oral NMP by LCMSMS
- Assay type: in vivo, human
- assay setup: human, plasma, po, 50 mg, oral 50 mg; average of N = 5 profiles; plasma; read-out: Half-life, Average (converted)

>  <mol smiles>
CN1CCCC1=O

>  <half-life>
1.08 h

$$$$

* * *

- protocol notes: Plasma pharmacokinetics of oral NMP by LCMSMS
- Assay type: in vivo, human
- assay setup: human, plasma, po, 300 mg, oral 300 mg; average of N = 3 profiles; plasma; read-out: Half-life, Average (converted)
parameter measured: half-life (h)

>  <mol smiles>
CN1CCCC1=O

>  <quantitative readout>
1.6

$$$$

* * *

- protocol notes: Plasma pharmacokinetics of oral NMP by LCMSMS
- Type: in vivo, human
- assay setup: human, plasma, po, 25 mg, oral 25 mg; patient RMH-01 occasion 6; plasma; read-out: Tmax

>  <mol smiles>
CN1CCCC1=O

>  <units symbol>
min

>  <Tmax>
30

$$$$

* * *

- protocol notes: Plasma pharmacokinetics of oral NMP by LCMSMS
- Assay type: in vivo, human
- assay setup: human, plasma, po, 800 mg, oral, one patient; read-out: Maximum plasma concentration (Cmax), highest achieved
parameter measured: Cmax

>  <mol smiles>
CN1CCCC1=O

>  <result>
16700 ng/mL

$$$$

* * *

- protocol notes: Plasma pharmacokinetics of oral NMP by LCMSMS
- Type: in vivo, human
- assay setup: human, plasma, po, 500 mg, oral 500 mg; patient MON-11 occasion 3; plasma; read-out: AUC
parameter measured: AUC (ng·h/mL)

>  <mol smiles>
CN1CCCC1=O

>  <quantitative readout>
40600

$$$$

* * *

- protocol notes: Plasma pharmacokinetics of oral NMP by LCMSMS
- Format: in vivo, human
- assay setup: human, plasma, po, 800 mg, oral 800 mg; patient MON-11 occasion 6; plasma; read-out: Cmax

>  <mol smiles>
CN1CCCC1=O

>  <Cmax>
16700 ng/mL

$$$$

* * *

- protocol notes: Plasma pharmacokinetics of oral NMP by LCMSMS
- Type: in vivo, human
- assay setup: human, plasma, po, 300 mg, oral 300 mg; average of N = 3 profiles; plasma; read-out: AUC, Average
parameter measured: AUC (ng·h/mL)

>  <mol smiles>
CN1CCCC1=O

>  <parameter measured>
AUC

>  <quantitative readout>
22200

$$$$

* * *

- protocol notes: Plasma pharmacokinetics of oral NMP by LCMSMS
- Type: in vivo, human
- assay setup: human, plasma, po, 100 mg, oral 100 mg; average of N = 5 profiles; plasma; read-out: AUC, Average

>  <compound>
CN1CCCC1=O [NMP, N-methyl-2-pyrrolidone]

>  <AUC [ng·h/mL]>
7130

$$$$

* * *

- protocol notes: Plasma pharmacokinetics of oral NMP by LCMSMS
- Assay type: in vivo, human
- assay setup: human, plasma, po, 200 mg, oral 200 mg; average of N = 9 profiles; plasma; read-out: Tmax, Average
parameter measured: Tmax (min)

>  <compound>
CN1CCCC1=O [NMP, N-methyl-2-pyrrolidone]

>  <parameter measured>
Tmax

>  <quantitative readout>
33.6

$$$$

* * *

- protocol notes: Plasma pharmacokinetics of oral NMP by LCMSMS
- Type: in vivo, human
- assay setup: human, plasma, po, 600 mg, oral 600 mg; patient MON-11 occasion 4; plasma; read-out: Cmax
parameter measured: Cmax (ng/mL)

>  <mol smiles>
CN1CCCC1=O

>  <quantitative readout>
14400

$$$$
